measured-on: T1, Recombinant WNV-E protein ectodomain (West Nile virus, UniProt Q9Q6P4 291-700)
T1 construct: extracellular domain; also called rWNV-E; WNE
T1 sequence (looked up): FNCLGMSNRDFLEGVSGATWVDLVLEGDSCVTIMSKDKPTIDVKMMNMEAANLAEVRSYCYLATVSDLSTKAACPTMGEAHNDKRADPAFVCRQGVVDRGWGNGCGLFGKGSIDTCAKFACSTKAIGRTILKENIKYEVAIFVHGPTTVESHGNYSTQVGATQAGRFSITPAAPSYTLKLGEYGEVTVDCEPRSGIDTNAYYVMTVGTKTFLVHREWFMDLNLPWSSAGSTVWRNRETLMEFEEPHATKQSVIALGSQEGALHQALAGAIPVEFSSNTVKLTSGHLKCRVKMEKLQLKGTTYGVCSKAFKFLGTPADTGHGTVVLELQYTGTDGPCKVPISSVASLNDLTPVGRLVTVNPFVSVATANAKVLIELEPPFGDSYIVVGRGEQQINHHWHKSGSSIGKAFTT
assay-overview: SPR (Biacore 3000); scFv on NTA chip via His tag, rWNV-E in solution
This listing pairs binders with measured Kd.

| binder | Kd |
| --- | --- |
| scFv 71 (scFv, also called 71 scFv; antibody 71) scFv: MAQVQLVQSGAEVKKPGASVKVSCKASGYTFSGYSTHWLRQVPGQGLEWIGWDNPSSGDTTYAENFRGRVTLTRDTSITTDYLEVRGLRSDDTAVYYCARGGDDYSFDHWGQGTLVTVSSGGGGSGGGGSGGGGSSYELTQPPSASGTTGQRVTISCSGSSSNIGSNTVNWYQQLPGTAPKLLIYSNNQRPSGVPDRLSGSKSGTSASLAISGLQSEDEADYYCAAWDARLTGPLFGGGTKLSVLRQPKAAPSAAAEQKLISEEDL | 27.5 nM |
| scFv 85 (scFv, not shown: small tags and cut ends, also called 85 scFv; antibody 85) scFv: MAQVQLVQSGAEVKKPGASVKVSCKASGYTFSGYSTHWLRQVPGQGLEWIGWDNPSSGDTTYAENFRGRVTLTRDTSITTDYLEVRGLRSDDTAVYYCARGGDDYSFDHWGQGTLVTVSSGGGGSGGGGSGGGGSSSELTQDPAVSVALGQTVTITCQGGGLRNYYASWYQQKPGQAPVLLVYGRDNRPSGIPDRFSGSSSGNTASLTITGAQAEDEADYYCNSRDSSGNHLVFGGGTKLTVLGQPKATPSAAAEQKLISEEDL | 1.34 nM |

Source listed as patent US20090130123A1.
